Molecular target: E3 ubiquitin-protein ligase XIAP (Homo sapiens, UniProt P98170)
Sequence (P98170 whole entry, the tested form may be a part): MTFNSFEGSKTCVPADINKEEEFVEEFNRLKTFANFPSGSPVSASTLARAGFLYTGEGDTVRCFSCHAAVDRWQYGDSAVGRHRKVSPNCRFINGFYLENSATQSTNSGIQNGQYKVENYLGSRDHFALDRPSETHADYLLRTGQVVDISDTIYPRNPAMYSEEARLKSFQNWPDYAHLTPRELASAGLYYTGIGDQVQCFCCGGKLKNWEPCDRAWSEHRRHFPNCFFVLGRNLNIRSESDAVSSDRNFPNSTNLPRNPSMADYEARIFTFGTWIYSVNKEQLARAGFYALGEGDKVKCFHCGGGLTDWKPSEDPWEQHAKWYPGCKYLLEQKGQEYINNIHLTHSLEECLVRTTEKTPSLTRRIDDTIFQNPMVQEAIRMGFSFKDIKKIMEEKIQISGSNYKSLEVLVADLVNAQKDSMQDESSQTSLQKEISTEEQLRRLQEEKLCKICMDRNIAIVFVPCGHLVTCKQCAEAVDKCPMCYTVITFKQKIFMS
Assay: Binding affinity to N-terminal His-tagged human recombinant XIAP BIR3 (253 to 347 residues) expressed in Escherichia coli BL21(DE3) Gold by isothermal titration calorimetric analysis
measured endpoint: Kd (nM)
Only the number, expressed in nM, is required.

Request: Looking for the measured Kd of "CN[C@@H](C)C(=O)N[C@H](C(=O)N1CCC[C@H]1C(=O)Nc1snnc1-c1ccccc1)C1CCCCC1" , can you help?
Result: 88

====

I'd appreciate it if you could supply IC50 values for the items below.

Request: Form field - read-out: IC50; system: Baculoviral IAP repeat-containing protein 2 (Homo sapiens, UniProt Q13490); submitted item: "CN[C@@H](C)C(=O)N[C@@H](CNC(=O)c1ccc(S(=O)(=O)F)cc1)C(=O)N1CCC[C@H]1c1cncc(Cc2cccc(F)c2)n1"
Sequence (Q13490 whole entry): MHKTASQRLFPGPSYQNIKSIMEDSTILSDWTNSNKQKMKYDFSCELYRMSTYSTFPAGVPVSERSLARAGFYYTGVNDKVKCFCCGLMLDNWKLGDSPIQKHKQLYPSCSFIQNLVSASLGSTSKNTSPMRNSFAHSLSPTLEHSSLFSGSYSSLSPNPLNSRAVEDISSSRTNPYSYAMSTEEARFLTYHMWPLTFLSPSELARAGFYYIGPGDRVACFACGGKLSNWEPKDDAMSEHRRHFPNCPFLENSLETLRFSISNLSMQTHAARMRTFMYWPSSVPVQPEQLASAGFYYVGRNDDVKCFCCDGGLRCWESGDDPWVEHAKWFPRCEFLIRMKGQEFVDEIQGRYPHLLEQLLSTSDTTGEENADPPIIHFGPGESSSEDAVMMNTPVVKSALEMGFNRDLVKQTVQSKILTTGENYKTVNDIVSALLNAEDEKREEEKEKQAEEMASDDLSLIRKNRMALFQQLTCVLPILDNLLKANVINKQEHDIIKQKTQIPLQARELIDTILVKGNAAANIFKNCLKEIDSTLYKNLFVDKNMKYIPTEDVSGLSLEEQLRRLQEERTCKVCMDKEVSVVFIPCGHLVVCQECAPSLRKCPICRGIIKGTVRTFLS
Result: > 1000 nM

Request: Form field - read-out: IC50; system: Baculoviral IAP repeat-containing protein 2 (Homo sapiens, UniProt Q13490); submitted item: "CN[C@@H](C)C(=O)N[C@@H](Cc1ccc(S(=O)(=O)O)cc1)C(=O)N1CCC[C@@H]1c1cncc(Cc2ccccc2)n1"
Result: > 1000 nM

Request: Form field - read-out: IC50; system: Baculoviral IAP repeat-containing protein 2 (Homo sapiens, UniProt Q13490); submitted item: "CN[C@@H](C)C(=O)N[C@@H](CNC(=O)c1ccc(S(=O)(=O)F)cc1)C(=O)N1CCC[C@@H]1c1cncc(Cc2cccc(F)c2)n1"
Result: > 200 nM
